Ref: patent US20260232732A1

SYSTEM: T1, biotin-peptide YCEKNNVRQF (human)
T1 peptide: Biotin-YCEKNNVRQF
PROTOCOL_DESCRIPTION: ELISA biotin-peptide; scFv 10 ug/mL; repII
Where no end group is shown, it is not given here. The star is where a group is joined. Biotin = O=C1N[C@H]2[C@H](CS[C@H]2CCCCC(=O)*)N1
ASSAY_METRIC: OD450 (OD)
Express it in OD; write the number only.

Could you share which OD450 value was measured for Comparative antibody 1 (Comp-1) scFv, SEQ ID NO: 10 from WO2023/037125 A1, His-tagged (scFv) scFv: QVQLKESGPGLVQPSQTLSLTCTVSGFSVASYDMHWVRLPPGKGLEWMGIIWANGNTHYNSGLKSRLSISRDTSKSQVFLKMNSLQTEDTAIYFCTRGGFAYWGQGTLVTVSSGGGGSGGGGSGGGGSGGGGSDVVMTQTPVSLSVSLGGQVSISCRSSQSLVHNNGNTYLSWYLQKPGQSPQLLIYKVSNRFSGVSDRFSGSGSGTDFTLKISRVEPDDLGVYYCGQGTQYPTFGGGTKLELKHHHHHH ?
0.06
